Could you please report measured inhibition for the items listed next?
# experiment-summary: inhibitors of Chlamydomonas gravitaxis, primary screen, whole organism, Chlamydomonas reinhardtii, WT vs cilia-less mutant, absorbance, 96-well (AID 463189);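 note: 0% = wild type cc124 cells in DMSO and 100% = ciliumless bld1 mutant cells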
# recorded-conditions: OD600 absorbance, 2 days, at 10 µM, active compounds read high
One number for each entry, in %.

State, in one line, measured inhibition of COCc1[nH]nc2c1C(c1sccc1C)C(C#N)=C(N)O2 (configuration not stated) 0.653

Answer with the recorded inhibition of Cc1c(O)c(CN2CCCC2)cc2c1oc(=O)c1ccccc12 only. 17.4

Name the recorded inhibition of the compound listed here: O=C1NCC(COCC2CC=CCC2)O1 (configuration not stated) 41.8

Could you please provide reported inhibition for Cc1nn(CC(=O)NCCN2CCOCC2)c(=O)c2ccccc12 ? Thanks! 27.9

Lab note: each compound below needs its inhibition filled in.
1. COc1ccccc1C(=O)Nc1cc(Cl)ccc1O
2. Cn1c(NCc2ccccc2)nc2c1c(=O)n(Cc1ccccc1)c(=O)n2C
3. Cc1ccc(OCC(O)CNS(=O)(=O)c2ccccc2C(=O)O)cc1 (configuration not stated)
4. CCOC(=O)COn1c(=O)c(-c2ccc(OC)c(OC)c2)[n+]([O-])c2ccccc21
5. COc1cccc(-c2nc(N3CCCCC3C)c3ccccc3n2)c1O (configuration not stated)

1: 21.5; 2: 6.49; 3: -7.23; 4: 37.5; 5: 9.9

Please give inhibition, item by item, for the list that follows.
1. CC(C)C(=O)N1CCN(c2nc(-c3ccccc3)c3c(c2C#N)CC(C)(C)OC3)CC1
2. CCOC(=O)CNC(=O)CCCCCC(=O)NCC(=O)OCC
3. Cc1cc(Nc2ccc3ccccc3c2)n2ncnc2n1

1: 26.8; 2: 21.4; 3: -3.1

Answer for every listed entry: what is its inhibition? The entries follow.
1. CN(C)c1nc(OCCNC(=O)Nc2ccccc2)nc(N(C)C)n1
2. CCOC(=O)C1=C(C)N=C2SC(C)C(=O)N2C1c1ccc(C(=O)OC)cc1 (configuration not stated)
3. CN1C(=O)NC(c2ccccc2)C2=C1CN(Cc1ccccc1)C2=O (configuration not stated)
4. CCOc1ccc2c(c1)n([O-])c1c([n+]2=O)CCCC1
5. CC1(C)CC(=O)C(C=NCCN2CCN(CCc3ccccc3)CC2)=C(O)C1
6. Cn1c(=O)c2c(nc(NCc3ccc4c(c3)OCO4)n2Cc2ccccc2)n(C)c1=O
7. O=C(Nc1ncccc1Cl)c1cccc(F)c1

1: 36.3; 2: -2.25; 3: 23.3; 4: 32.8; 5: -9.36; 6: -2.21; 7: 34.1

----------
Task for the reader: assign each of the following compounds its reported inhibition of aggregation.
# experiment-summary: inhibitors of mutant huntingtin aggregation, primary screen, imaging, exon1htt(103Q)mCFP cells, high-content imaging (AID 483);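 note: compound exposure lasted 3 days before fixation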
# recorded-conditions: exon1htt(103Q)mCFP cell line, aggregate imaging, at 2 µM; active compounds read high
Numbers only, in %.

Example entries and their recorded answers appear below.
Please give measured inhibition of aggregation of the following entry: Nn1c(Cc2ccccc2F)nnc1SCC(=O)N1CC(=O)Nc2ccccc21 11.9

Please give the documented inhibition of aggregation of O=C(COc1ccc(Cl)cc1)NCc1nnc(SCC(=O)Nc2ccc3c(c2)OCCO3)o1 4.2

Give recorded inhibition of aggregation. CCCN1CCN(C(=O)Cn2c(=O)oc3cc(S(=O)(=O)NCc4ccccc4)ccc32)CC1 -16.6

Given CC1CCCC(C)N1C(=O)COC(=O)c1ccc[nH]c1=O (stereo unspecified) , respond with its inhibition of aggregation. 3.4

Look up and state reported inhibition of aggregation for COc1ccc(OC)c(S(=O)(=O)Nc2ccccc2SC)c1 20

Required: inhibition of aggregation, one value per compound below.
1. c1cn(CC2(Cn3ccnc3)COC2)cn1
2. COc1ccc(Cn2nnnc2CN2CCOCC2)cc1
3. O=C(Cn1cnc2c(nnn2-c2ccc(F)cc2)c1=O)N1CCCc2ccccc21
4. CCOC(=O)C1=C(C)Nc2nc(SCC(=O)OC)nn2C1c1cc(F)cc(F)c1 (stereo unspecified)
5. Cc1cc(C)cc(NC(=O)C2CCCN(S(=O)(=O)c3cnc[nH]3)C2)c1 (stereo unspecified)
6. Cc1nc(SCC(=O)CC(=O)OC(C)C)c(C#N)c(C)c1C

-13.4
-2.3
-21.9
-6.3
-39.1
-22.8

Data provenance is PubChem BioAssay.
